IC50 values by entry
Biological target: PI3K (p110α/p85α) (Homo sapiens, UniProt P42336)
Construct: purchased Carna Biosciences 07CBS-0402A
Sequence (P42336 whole entry): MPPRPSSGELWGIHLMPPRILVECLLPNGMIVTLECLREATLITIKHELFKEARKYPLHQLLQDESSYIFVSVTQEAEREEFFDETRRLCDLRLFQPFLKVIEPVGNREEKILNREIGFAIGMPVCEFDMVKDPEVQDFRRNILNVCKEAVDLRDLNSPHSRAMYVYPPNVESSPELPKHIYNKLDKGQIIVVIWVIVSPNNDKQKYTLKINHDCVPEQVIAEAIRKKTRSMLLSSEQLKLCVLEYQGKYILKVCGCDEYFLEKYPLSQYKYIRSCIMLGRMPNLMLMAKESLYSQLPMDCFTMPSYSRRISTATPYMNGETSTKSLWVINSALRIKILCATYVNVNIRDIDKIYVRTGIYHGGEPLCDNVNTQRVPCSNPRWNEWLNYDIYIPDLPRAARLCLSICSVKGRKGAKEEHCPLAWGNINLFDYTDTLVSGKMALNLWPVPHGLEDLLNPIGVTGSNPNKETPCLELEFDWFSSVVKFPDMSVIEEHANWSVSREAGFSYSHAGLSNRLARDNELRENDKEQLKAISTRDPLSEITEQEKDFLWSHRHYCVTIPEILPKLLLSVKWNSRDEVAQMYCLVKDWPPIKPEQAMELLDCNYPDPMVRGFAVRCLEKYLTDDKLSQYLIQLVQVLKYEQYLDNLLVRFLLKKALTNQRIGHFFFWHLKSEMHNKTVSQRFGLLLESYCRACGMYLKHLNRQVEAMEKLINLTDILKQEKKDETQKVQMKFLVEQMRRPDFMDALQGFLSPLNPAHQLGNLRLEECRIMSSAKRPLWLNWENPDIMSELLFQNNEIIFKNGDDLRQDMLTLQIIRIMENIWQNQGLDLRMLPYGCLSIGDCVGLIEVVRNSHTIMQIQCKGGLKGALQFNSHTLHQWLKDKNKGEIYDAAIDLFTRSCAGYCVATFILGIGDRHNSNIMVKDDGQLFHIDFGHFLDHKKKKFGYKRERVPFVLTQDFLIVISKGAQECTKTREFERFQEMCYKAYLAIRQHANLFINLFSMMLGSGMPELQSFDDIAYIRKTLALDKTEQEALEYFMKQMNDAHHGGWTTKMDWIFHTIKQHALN
Sequence (P27986 whole entry partner): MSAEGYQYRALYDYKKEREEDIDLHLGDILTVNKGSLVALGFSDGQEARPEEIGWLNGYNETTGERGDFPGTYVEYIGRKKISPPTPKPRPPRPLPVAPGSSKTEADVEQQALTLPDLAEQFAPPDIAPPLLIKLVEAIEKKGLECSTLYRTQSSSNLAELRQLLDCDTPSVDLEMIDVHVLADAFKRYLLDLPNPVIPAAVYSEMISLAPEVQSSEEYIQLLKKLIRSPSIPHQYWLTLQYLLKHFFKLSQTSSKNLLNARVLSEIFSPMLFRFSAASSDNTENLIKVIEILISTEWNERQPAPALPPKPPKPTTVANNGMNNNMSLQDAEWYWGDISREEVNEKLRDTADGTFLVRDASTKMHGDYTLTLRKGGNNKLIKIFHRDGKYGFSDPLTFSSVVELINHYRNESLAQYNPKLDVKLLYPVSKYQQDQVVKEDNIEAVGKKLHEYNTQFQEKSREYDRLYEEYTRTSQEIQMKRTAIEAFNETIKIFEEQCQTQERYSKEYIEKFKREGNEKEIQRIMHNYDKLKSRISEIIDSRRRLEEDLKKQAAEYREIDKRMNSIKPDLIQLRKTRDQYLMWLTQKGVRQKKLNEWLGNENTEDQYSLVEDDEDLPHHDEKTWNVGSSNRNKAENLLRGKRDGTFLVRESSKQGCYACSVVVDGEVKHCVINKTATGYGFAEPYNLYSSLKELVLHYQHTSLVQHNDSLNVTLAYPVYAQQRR
Experiment: PI3K activity assay (ADP Hunter Plus)
Assay type: biochemical
Settings: read-out: PI3K alpha actual IC50 (in parentheses)
The number alone won't do; follow it with the unit.

Retrieve IC50 on PI3K (p110α/p85α) (Homo sapiens, UniProt P42336); query `COc1ncc2cc1NS(=O)(=O)c1cccc(c1)C(=O)NCc1cncc(c1)-c1ncnc3c1SC2=C3C`
13 nM

###

Experiment: Pharmacokinetic in BALB-c female mice, i.v. and oral
Format: in vivo
Details: mouse, plasma, iv, I.V, dose 1.00 mg/Kg, read-out: MRT (Mean residence time)
property_name: MRT (h)
Note: unit h is implicit; provide only the numeric part.

Output MRT of COc1ncc2cc1NS(=O)(=O)c1cccc(c1)C(=O)N1CCc3ccc(cc3C1)-c1ccnc3ccc-2cc13 [compound 39]
2.39
